Each entry below carries its recorded pEC50.
- TARGET UNDER TEST: CFTR in F508del/MF-HBE cells (Homo sapiens, UniProt P13569, DEL508-508)
- Construct: human bronchial epithelial (HBE) cells derived from CF subjects heterozygous for F508del and a minimal function CFTR mutation; endogenous in cells
- Sequence (P13569 with tags, fused parts or gaps DEL508-508): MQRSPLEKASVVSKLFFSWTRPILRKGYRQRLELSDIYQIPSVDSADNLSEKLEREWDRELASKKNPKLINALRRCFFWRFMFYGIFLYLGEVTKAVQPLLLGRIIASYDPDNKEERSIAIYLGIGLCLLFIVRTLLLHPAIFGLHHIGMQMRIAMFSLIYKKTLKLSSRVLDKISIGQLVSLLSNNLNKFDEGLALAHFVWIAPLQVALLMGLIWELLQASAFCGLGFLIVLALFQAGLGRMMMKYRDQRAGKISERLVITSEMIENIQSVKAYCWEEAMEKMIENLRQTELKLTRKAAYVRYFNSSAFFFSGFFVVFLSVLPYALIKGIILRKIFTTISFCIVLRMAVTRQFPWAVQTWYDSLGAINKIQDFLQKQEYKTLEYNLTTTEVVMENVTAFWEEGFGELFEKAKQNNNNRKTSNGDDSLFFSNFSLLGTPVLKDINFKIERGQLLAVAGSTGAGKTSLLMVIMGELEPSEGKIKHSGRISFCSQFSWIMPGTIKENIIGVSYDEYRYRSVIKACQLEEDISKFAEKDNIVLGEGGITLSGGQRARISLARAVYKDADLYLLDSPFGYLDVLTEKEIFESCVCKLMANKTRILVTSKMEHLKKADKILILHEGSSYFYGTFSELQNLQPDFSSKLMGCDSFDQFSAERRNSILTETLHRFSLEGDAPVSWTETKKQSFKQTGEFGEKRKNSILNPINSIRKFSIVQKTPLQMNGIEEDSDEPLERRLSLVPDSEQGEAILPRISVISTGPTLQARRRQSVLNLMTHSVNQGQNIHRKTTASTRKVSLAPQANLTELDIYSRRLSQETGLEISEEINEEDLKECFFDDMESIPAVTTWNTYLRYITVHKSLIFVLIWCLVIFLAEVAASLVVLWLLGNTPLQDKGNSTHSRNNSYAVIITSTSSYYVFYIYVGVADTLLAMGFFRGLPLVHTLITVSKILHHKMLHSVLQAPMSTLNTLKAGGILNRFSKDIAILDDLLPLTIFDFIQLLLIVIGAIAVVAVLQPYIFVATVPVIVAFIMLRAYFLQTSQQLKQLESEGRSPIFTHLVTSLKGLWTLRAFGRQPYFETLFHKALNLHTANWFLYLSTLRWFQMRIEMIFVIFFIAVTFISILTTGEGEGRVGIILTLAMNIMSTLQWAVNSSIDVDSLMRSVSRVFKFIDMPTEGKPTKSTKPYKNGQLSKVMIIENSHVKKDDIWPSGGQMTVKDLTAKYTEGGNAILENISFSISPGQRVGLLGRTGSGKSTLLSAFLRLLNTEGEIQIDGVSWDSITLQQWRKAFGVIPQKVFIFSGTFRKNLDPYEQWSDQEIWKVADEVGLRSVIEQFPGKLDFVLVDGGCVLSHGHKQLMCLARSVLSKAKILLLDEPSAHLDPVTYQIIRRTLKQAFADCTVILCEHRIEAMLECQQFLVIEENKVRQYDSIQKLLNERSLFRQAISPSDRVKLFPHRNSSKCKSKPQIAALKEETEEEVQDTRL
- EXPERIMENT DESCRIPTION: Ussing chamber assay of CFTR-mediated short-circuit currents (identification of potentiator compounds)
- ASSAY CONDITIONS: potentiator incubated 18-24 hours at 37° C. in combination with 10 μM corrector, in the presence of 20% human serum, CFTR-mediated ISC
pEC50: −log10 of the molar value.

Solved cases (2 shown):
>>> print(df.to_string())
                                   molecule  result
0  Nc1cc(C(F)(F)F)c2nc1-c1nnc(o1)[C@@](O)(C(F)(F)F)CCCCCN(Cc1ccc(OC(F)F)cc1)C2=O [Compound 266]  > 6.30
1  CC(C)N1CCCCCC(O)(C(F)(F)F)C2=NN=C(O2)c2nc(c(C(F)(F)F)cc2N)C1=O (single isomer, unassigned) [Compound 204]  > 6.30

Please turn your attention to the following entry.
Data request: GET /values?readout=pEC50&system=CFTR in F508del/MF-HBE cells (Homo sapiens, UniProt P13569, DEL508-508)&item= CCCc1cccc(CN2CCCCC[C@](O)(C(F)(F)F)C3=NN=C(O3)c3nc(c(C(F)(F)F)cc3N)C2=O)c1 [Compound 148]
Data returned: > 6.30
